assay.system: T1, human LAP-TGFB1 Fc fusion (human)
T1 construct: also called human LAP-TGFβ1-Fc; human LAP-TGFβ-Fc isoform 1
T1 sequence (chain, as listed by the source limits assumed): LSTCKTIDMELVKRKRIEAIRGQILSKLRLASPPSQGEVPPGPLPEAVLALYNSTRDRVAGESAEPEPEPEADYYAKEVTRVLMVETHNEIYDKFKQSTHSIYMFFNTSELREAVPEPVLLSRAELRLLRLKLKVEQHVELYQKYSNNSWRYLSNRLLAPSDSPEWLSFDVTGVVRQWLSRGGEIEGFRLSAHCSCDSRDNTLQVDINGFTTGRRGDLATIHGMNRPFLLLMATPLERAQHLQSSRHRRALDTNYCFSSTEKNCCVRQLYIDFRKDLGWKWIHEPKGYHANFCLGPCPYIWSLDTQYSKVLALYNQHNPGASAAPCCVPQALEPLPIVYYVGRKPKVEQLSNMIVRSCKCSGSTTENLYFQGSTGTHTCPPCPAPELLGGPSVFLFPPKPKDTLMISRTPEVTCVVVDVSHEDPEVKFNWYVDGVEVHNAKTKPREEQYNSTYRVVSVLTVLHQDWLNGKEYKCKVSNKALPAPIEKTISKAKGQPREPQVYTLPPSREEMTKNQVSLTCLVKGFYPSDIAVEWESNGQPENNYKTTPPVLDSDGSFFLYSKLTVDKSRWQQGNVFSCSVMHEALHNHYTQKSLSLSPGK
protocol.details: BLI off-rate screen
property: Fold change (fold)
Give your result in fold as a bare value.

VL N34Y (47BIT) (Fab, V domains shown) VH: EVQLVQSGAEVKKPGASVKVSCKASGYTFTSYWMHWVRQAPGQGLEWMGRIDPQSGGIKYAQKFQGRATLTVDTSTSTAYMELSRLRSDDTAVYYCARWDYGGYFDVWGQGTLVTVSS VL: DIQMTQSPSSLSASVGDRVTITCRASQDITNYLYWYQQKPGKAVKLLIYYTSRLHSGVPSRFSGSGSGTDYTLTISSLQPEDFATYFCQQGDTLPWTFGQGTKLEIKR    1

Request: So what's the measured Fold change for this one? VL D28Y (42BIT) (Fab, V domains shown) VH: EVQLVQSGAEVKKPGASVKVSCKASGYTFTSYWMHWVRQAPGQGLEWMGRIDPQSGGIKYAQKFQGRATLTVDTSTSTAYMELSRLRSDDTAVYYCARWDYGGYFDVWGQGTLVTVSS VL: DIQMTQSPSSLSASVGDRVTITCRASQYITNYLNWYQQKPGKAVKLLIYYTSRLHSGVPSRFSGSGSGTDYTLTISSLQPEDFATYFCQQGDTLPWTFGQGTKLEIKR
Response: 1.3

Request: Which value of Fold change has been reported for VL H55Y (52BIT) (Fab, V domains shown) VH: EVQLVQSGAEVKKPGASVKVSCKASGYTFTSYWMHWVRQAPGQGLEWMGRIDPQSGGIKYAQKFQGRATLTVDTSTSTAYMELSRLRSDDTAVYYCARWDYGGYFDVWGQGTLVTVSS VL: DIQMTQSPSSLSASVGDRVTITCRASQDITNYLNWYQQKPGKAVKLLIYYTSRLYSGVPSRFSGSGSGTDYTLTISSLQPEDFATYFCQQGDTLPWTFGQGTKLEIKR in the records?
Response: 1.1

Request: Which Fold change value belongs to VL S52Y (49BIT) (Fab, V domains shown) VH: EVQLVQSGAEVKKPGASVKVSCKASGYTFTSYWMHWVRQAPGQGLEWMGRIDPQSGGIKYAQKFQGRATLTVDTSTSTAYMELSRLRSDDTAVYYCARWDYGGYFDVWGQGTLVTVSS VL: DIQMTQSPSSLSASVGDRVTITCRASQDITNYLNWYQQKPGKAVKLLIYYTYRLHSGVPSRFSGSGSGTDYTLTISSLQPEDFATYFCQQGDTLPWTFGQGTKLEIKR ?
Response: 1

Request: // Fold change lookup, key: VH K58Y (84BIT) (Fab, V domains shown) VH: EVQLVQSGAEVKKPGASVKVSCKASGYTFTSYWMHWVRQAPGQGLEWMGRIDPQSGGIYYAQKFQGRATLTVDTSTSTAYMELSRLRSDDTAVYYCARWDYGGYFDVWGQGTLVTVSS VL: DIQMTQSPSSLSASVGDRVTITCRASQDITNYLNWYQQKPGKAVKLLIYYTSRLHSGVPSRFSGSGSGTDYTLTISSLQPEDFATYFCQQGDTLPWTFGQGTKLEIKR
Response: 1.3
